- Test target: Cytochrome P450 2C9 (Homo sapiens)
- Test summary: Cytochrome P450 family 2 subfamily C member 9 (CYP2C9) small molecule antagonists: luciferase biochemical (cell-free) qHTS assay (AID 1645842); note: nearly all actives have a fitted effect of over 55% in size
- Cond: P450-Glo CYP2C9 enzyme assay, luciferin luminescence; series mostly up to 57.4 µM
Results filed as inconclusive are left out. Active and inactive are the calls of the source. Calls come from the whole dose curve; as a rule, active = well fitted inhibition curve with a large enough effect in the repeat runs; inconclusive = weak or mixed curves; inactive = no such curve, though single readings can be large or run the other way.
Mark one answer only. Choices: Yes (active), No (inactive)

- Compound: "OC1(c2ccc(Cl)cc2)c2ccccc2C2=NCCN21 (configuration not stated)"
  Class: "Yes"
- Compound: "CCCCCCn1c(=O)c(C(=O)Nc2ccc(C(=O)OCCC)cc2)c(O)c2ccccc21"
  Class: "No"
- Compound: "COCC(C)N(C(=O)CCl)c1c(C)csc1C (configuration not stated)"
  Class: "Yes"
- Compound: "CCCCCOc1cc2c(cc1-c1cc(/C=C/C(=O)O)ccc1O)C(C)(C)CCC2(C)C"
  Class: "Yes"
- Compound: "CC(C)(C)c1cc(O)ccc1O"
  Class: "Yes"

Q) Tell me the assay call for CN(C)CCc1c[nH]c2ccc(CN3CCN(C)S3(=O)=O)cc12 please.
A) No

Q) Tell me the assay call for C#CC(C)(O)CC (configuration not stated) please.
A) No

Origin of the recorded values: PubChem BioAssay (NCATS)
